All figures here come from the supplement of paper PMC6757056.

B1: library; a variant is named by its letters at N, in order (parent)
chain: GCUGUCACCGAGAAACUGUGAAGUAUAUCUUAAACCUGGGCACUUAAAAGAUAUAUGGAGUUAGUAGUGCAACCUGCUCGGUCUGAUGAGUCCNNNNNNGGACGAAACAGC

variants of: B1; assay: normalized RNA/DNA level with ligand (relative to sTRSVctl = 100) (log10 (% of sTRSVctl)); HEK293T; ligand: cyclic di-GMP (c-di-GMP-II aptamer); ligand concentration (+) RNA-Seq: 1 mM; higher = less ribozyme self-cleavage, higher mRNA level; conditions: reporter: mCherry (pCS4076), ligand present: yes
measure_name: normalized RNA/DNA level with ligand (log10)

| mutations | recorded_measurement |
| --- | --- |
| UAUUCG | 1.87 |
| GGCAUG | 1.7 |
| CACGUG | 1.84 |
| AAUCGG | 1.76 |
| UUCCCA | 1.92 |
| GCAGCA | 1.89 |
| GAGUAA | 1.81 |
| CAAAAA | 1.46 |
| UGCGUG | 1.9 |
| GUCGGU | 1.83 |
| AAGAGC | 1.71 |
| CCCGGC | 1.88 |
| GUGACC | 1.82 |
| UCAGAA | 1.65 |
| GCGCCC | 1.89 |
| AAAAUG | 1.7 |
| CCACAG | 1.75 |
| ACAUUU | 1.67 |
| CGGGCC | 1.95 |
| AUGAGA | 1.54 |
| UGCAGG | 1.85 |
| GAUUAG | 1.8 |
| CGGGUU | 1.82 |
| CUGAUA | 1.5 |
| GGCUGG | 1.82 |
| CGCCCC | 1.9 |
| ACCUCA | 1.77 |
| UCGAUG | 1.72 |
| AUACAU | 1.78 |
